Target: P2X purinoceptor 7 (Homo sapiens)
Sequence (Q99572 whole entry): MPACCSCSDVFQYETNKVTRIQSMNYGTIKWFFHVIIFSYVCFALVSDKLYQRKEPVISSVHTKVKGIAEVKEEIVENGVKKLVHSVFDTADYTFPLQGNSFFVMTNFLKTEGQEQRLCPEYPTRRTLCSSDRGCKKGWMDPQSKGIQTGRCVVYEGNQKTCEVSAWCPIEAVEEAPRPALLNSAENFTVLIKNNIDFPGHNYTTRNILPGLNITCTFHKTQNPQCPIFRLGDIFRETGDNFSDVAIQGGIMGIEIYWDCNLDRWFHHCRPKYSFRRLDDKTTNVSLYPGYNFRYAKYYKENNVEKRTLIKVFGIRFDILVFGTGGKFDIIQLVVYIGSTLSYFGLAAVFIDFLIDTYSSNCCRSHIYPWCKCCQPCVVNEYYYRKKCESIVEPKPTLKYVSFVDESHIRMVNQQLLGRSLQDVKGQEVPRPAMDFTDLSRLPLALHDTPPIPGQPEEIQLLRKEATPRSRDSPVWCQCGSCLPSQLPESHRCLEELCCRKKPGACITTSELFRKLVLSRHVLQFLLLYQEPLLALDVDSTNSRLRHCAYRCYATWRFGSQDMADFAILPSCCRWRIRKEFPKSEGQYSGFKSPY
Experiment: Antagonist activity at human recombinant P2X7 receptor expressed in human 1321N1 cells assessed as benzoyl-ATP-induced calcium flux by FLIPR assay
Type: functional, cell-based
Value Type: IC50 (nM)

Use the examples below as a reference point.
[[record]]
substance_smiles = "Cc1ccccc1NNC(=O)C1CCCCC1"
value_type = "IC50"
unit_name = "nM"
value_reported = 174

[[record]]
substance_smiles = "O=C(NNc1ccccc1)C12CC3CC(CC(C3)C1)C2"
value_type = "IC50"
unit_name = "nM"
value_reported = 110

[[record]]
substance_smiles = "O=C(NNc1ccc(Cl)cc1Cl)C12CC3CC(CC(C3)C1)C2"
value_type = "IC50"
unit_name = "nM"
value_reported = 372

[[record]]
substance_smiles = "Cc1ccccc1NNC(=O)C1(C)CCCCC1"
value_type = "IC50"
unit_name = "nM"
value_reported = 70.8

[[record]]
substance_smiles = "Cc1ccccc1NNC(=O)C1(c2ccccc2)CCCC1"
value_type = "IC50"
unit_name = "nM"
value_reported = 132

[[record]]
substance_smiles = "Cc1ccc(C)c(NNC(=O)C23CC4CC(CC(C4)C2)C3)c1"
value_type = "IC50"
unit_name = "nM"
value_reported = 57.5

[[record]]
substance_smiles = "O=C(CC12CC3CC(CC(C3)C1)C2)NNc1cccc2ncccc12"
value_type = "IC50"
unit_name = "nM"
value_reported = 57.5

[[record]]
substance_smiles = "CC1(C)C(C(=O)NNc2cccc3ncccc23)C1(C)C"
value_type = "IC50"
unit_name = "nM"
value_reported = 200

[[record]]
substance_smiles = "O=C(NNc1cccc2ncccc12)C12CC3CC(CC1C3)C2"
value_type = "IC50"
unit_name = "nM"
value_reported = 27.5

[[record]]
substance_smiles = "O=C(NNc1cccc2ncccc12)C1(c2ccc(F)cc2)CCCCC1"
value_type = "IC50"
unit_name = "nM"
value_reported = 70.8


a. O=C(NNc1cccc2ncccc12)C1(c2cccc(F)c2)CCCCC1
b. O=C(NNc1cccnc1)C12CC3CC(CC(C3)C1)C2
c. O=C(NNc1cccc2ncccc12)C12CC3CC(CC(C3)C1)C2
Query string: Order the records so the highest IC50 appears first and the lowest last. Give me the labels in the order the question wants.
Result string: b, a, c
